- settings: in n-butanol, 298.15 K
experimental-endpoint: solubility (mole fraction)
// return a plain number; no unit text

Exercise: Fill in solubility (mole fraction) for record CC(=O)Nc1ccc(C(=O)O)cc1
Key: 0.00722

====

- settings: in methanol, 313.15 K
experimental-endpoint: solubility (mole fraction)
// return a plain number; no unit text

Exercise: Fill in solubility (mole fraction) for record CC(=O)Nc1ccc(C(=O)O)cc1
Key: 0.0115

====

- settings: in n-propanol, 318.15 K
experimental-endpoint: solubility (mole fraction)
// return a plain number; no unit text

Exercise: Fill in solubility (mole fraction) for record CC(=O)Nc1ccc(C(=O)O)cc1
Key: 0.0113

====

- settings: in acetic acid, 333.15 K
experimental-endpoint: solubility (mole fraction)
// return a plain number; no unit text

Exercise: Fill in solubility (mole fraction) for record CC(=O)Nc1ccc(C(=O)O)cc1
Key: 0.0111

====

- settings: in 1,4-dioxane, 318.15 K
experimental-endpoint: solubility (mole fraction)
// return a plain number; no unit text

Exercise: Fill in solubility (mole fraction) for record CC(=O)Nc1ccc(C(=O)O)cc1
Key: 0.00577

====

- settings: in n-propanol, 308.15 K
experimental-endpoint: solubility (mole fraction)

Exercise: Fill in solubility (mole fraction) for record CC(=O)Nc1ccc(C(=O)O)cc1
Key: 0.00883

====

- settings: in isobutanol, 288.15 K
experimental-endpoint: solubility (mole fraction)
// return a plain number; no unit text

Exercise: Fill in solubility (mole fraction) for record CC(=O)Nc1ccc(C(=O)O)cc1
Key: 0.00456

====

- settings: in acetone, 303.15 K
experimental-endpoint: solubility (mole fraction)
// return a plain number; no unit text

Exercise: Fill in solubility (mole fraction) for record CC(=O)Nc1ccc(C(=O)O)cc1
Key: 0.00538

====

- settings: in methanol, 293.15 K
experimental-endpoint: solubility (mole fraction)
// return a plain number; no unit text

Exercise: Fill in solubility (mole fraction) for record CC(=O)Nc1ccc(C(=O)O)cc1
Key: 0.00738

====

- settings: in n-butanol, 303.15 K
experimental-endpoint: solubility (mole fraction)
// return a plain number; no unit text

Exercise: Fill in solubility (mole fraction) for record CC(=O)Nc1ccc(C(=O)O)cc1
Key: 0.00812

====

- settings: in methanol, 288.15 K
experimental-endpoint: solubility (mole fraction)

Exercise: Fill in solubility (mole fraction) for record CC(=O)Nc1ccc(C(=O)O)cc1
Key: 0.00663

====

- settings: in acetonitrile, 283.15 K
experimental-endpoint: solubility (mole fraction)
// return a plain number; no unit text

Exercise: Fill in solubility (mole fraction) for record CC(=O)Nc1ccc(C(=O)O)cc1
Key: 0.000293

====

- settings: in n-propanol, 293.15 K
experimental-endpoint: solubility (mole fraction)
// return a plain number; no unit text

Exercise: Fill in solubility (mole fraction) for record CC(=O)Nc1ccc(C(=O)O)cc1
Key: 0.00608

====

- settings: in n-propanol, 283.15 K
experimental-endpoint: solubility (mole fraction)
// return a plain number; no unit text

Exercise: Fill in solubility (mole fraction) for record CC(=O)Nc1ccc(C(=O)O)cc1
Key: 0.0048

====

- settings: in ethanol, 283.15 K
experimental-endpoint: solubility (mole fraction)
// return a plain number; no unit text

Exercise: Fill in solubility (mole fraction) for record CC(=O)Nc1ccc(C(=O)O)cc1
Key: 0.00586

====

- settings: in methanol, 318.15 K
experimental-endpoint: solubility (mole fraction)
// return a plain number; no unit text

Exercise: Fill in solubility (mole fraction) for record CC(=O)Nc1ccc(C(=O)O)cc1
Key: 0.0126

====

- settings: in acetonitrile, 323.15 K
experimental-endpoint: solubility (mole fraction)
// return a plain number; no unit text

Exercise: Fill in solubility (mole fraction) for record CC(=O)Nc1ccc(C(=O)O)cc1
Key: 0.00132

====

- settings: in isopropanol, 293.15 K
experimental-endpoint: solubility (mole fraction)
// return a plain number; no unit text

Exercise: Fill in solubility (mole fraction) for record CC(=O)Nc1ccc(C(=O)O)cc1
Key: 0.00713

====

- settings: in n-propanol, 313.15 K
experimental-endpoint: solubility (mole fraction)
// return a plain number; no unit text

Exercise: Fill in solubility (mole fraction) for record CC(=O)Nc1ccc(C(=O)O)cc1
Key: 0.00986
